Biological target: UniProt P28190
Sequence (P28190 whole entry): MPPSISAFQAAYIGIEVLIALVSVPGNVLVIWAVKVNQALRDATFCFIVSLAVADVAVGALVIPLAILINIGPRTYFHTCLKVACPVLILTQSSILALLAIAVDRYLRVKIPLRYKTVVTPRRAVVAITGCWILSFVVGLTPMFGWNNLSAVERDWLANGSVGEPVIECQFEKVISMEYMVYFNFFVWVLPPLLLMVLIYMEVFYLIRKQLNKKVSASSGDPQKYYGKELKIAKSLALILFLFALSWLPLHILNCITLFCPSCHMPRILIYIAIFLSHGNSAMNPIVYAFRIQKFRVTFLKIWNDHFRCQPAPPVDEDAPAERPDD
PROPERTY_LABEL: Ki

COMPOUND	Ki
CCCn1c(=O)c2[nH]c(-c3ccc(OCC(=O)NCCN)cc3)nc2n(CCC)c1=O	0.08 nM

Return reported Ki. Input compound: CCCn1c(=O)c2[nH]c(C3CCCC3)nc2n(CCC)c1=O [DPCPX]
0.07 nM

src = BindingDB's records for doi:10.1007/bf00165806
